Test system: U2OS
method: Multiplex assay against U2OS
Format: toxicity, cell-based
test context: human, 24 h, 1 µM, compound concentration 1 uM, replicate 1
readout type: Total Cell Count
Numbers only.

compound: CC1=C(C(=O)Nc2cc3cn[nH]c3cc2F)C(c2ccc(C(F)(F)F)cc2)CC(=O)N1 (centres undefined)
Total Cell Count: 176

compound: COc1ccccc1CN[C@H]1C2CCN(CC2)[C@H]1C(c1ccccc1)c1ccccc1 [CP-96345]
Total Cell Count: 154

compound: CC(C)c1noc(N2CCC(COc3ccc(-c4ccc(S(C)(=O)=O)cc4)nc3)CC2)n1 [GSK-1292263]
Total Cell Count: 334

Proceeding to the next compound to report its Total Cell Count.
I'd like to know its Total Cell Count. The compound in question is CC(C)CC(=O)Nc1[nH]nc2c1CN(C(=O)C1CCN(C)CC1)C2(C)C [PHA-793887] 148

====

Kindly state Population Pyknosed Nuclei (%) for each of the entries shown.
Tested on: Fibroblast
method: Multiplex assay against human fibroblast
Format: toxicity, cell-based
test context: 12 h, 10 µM, compound concentration 10 uM, replicate 2

# example entries with known answers
molecule: C=CC(=O)Nc1cccc(Oc2nc(Nc3ccc(N4CCN(C)CC4)cc3OC)ncc2Cl)c1
Population Pyknosed Nuclei (%): 7%
//
molecule: COc1ccccc1CN[C@H]1C2CCN(CC2)[C@H]1C(c1ccccc1)c1ccccc1 [CP-96345]
Population Pyknosed Nuclei (%): 10%
//
molecule: CNC(=O)Nc1ccc(-c2nc(N3CC4CCC(C3)O4)c3cnn(C4CCC5(CC4)OCCO5)c3n2)cc1
Population Pyknosed Nuclei (%): 32%

Lab note: each molecule below needs its Population Pyknosed Nuclei (%) filled in.
1. O=C(c1cc2c(cc1F)OC(c1ccc(F)cc1)(c1ccc(Cl)cc1Cl)O2)N1CCOCC1 (configuration not stated)
2. CC(C)c1noc(N2CCC(COc3ccc(-c4ccc(S(C)(=O)=O)cc4)nc3)CC2)n1 [GSK-1292263]
3. C=CC(=O)Nc1cccc(Sc2nc(Nc3ccc(N4CCN(C)CC4)cc3)ncc2Cl)c1
4. CCc1ccc(OCc2ccccc2C(=O)Nc2ccc3nc(C)cc(N)c3c2)cc1.Cl
5. CCCSc1nc(N[C@@H]2C[C@H]2c2ccc(F)c(F)c2)c2nnn([C@@H]3C[C@H](OCCO)[C@@H](O)[C@H]3O)c2n1 [TICAGRELOR]
6. CC1=C(C(=O)Nc2cc3cn[nH]c3cc2F)C(c2ccc(C(F)(F)F)cc2)CC(=O)N1 (configuration not stated)

1: 10%; 2: 10%; 3: 1%; 4: 77%; 5: 12%; 6: 7%

====

Tested on: Fibroblast
method: Multiplex assay against human fibroblast
Format: toxicity, cell-based
test context: 12 h, 10 µM, compound concentration 10 uM, replicate 2
readout type: Population Pyknosed Nuclei (%)
Give bare numbers, in %.

# example entries with known answers
structure: CNC(=O)Nc1ccc2c(c1)[C@@]1(CC2)OC(=O)N(CC(=O)N(Cc2ccc(F)cc2)[C@@H](C)C(F)(F)F)C1=O
Population Pyknosed Nuclei (%): 5
--
structure: CC(C)CC(=O)Nc1[nH]nc2c1CN(C(=O)C1CCN(C)CC1)C2(C)C
Population Pyknosed Nuclei (%): 7

Proceeding to the next compound to report its Population Pyknosed Nuclei (%).
I'd like to know its Population Pyknosed Nuclei (%). The compound in question is `CC(C)(C)NC[C@H](O)COc1nsnc1N1CCOCC1` 11
